biological target: Human immunodeficiency virus type 1 reverse transcriptase (Human immunodeficiency virus 1, UniProt Q72547); test: Inhibition of recombinant wild type HIV1 reverse transcriptase p66/p51 using poly (rA)/anoligo (dT)16 as template/primer assessed as inhibition of biotin-dUTP incorporation after 40 mins by Pico-Green staining based fluorescence assay
PROPERTY: IC50 (µM)

// worked examples, IC50 included
Cc1cc(-c2cccc(Cl)c2)cc(C)c1Nc1ccnc(Nc2ccc(C#N)cc2)n1 ... 0.02
Cc1cc(-c2ccccc2C(F)(F)F)cc(C)c1Nc1ccnc(Nc2ccc(C#N)cc2)n1 ... 0.046
COc1ccc(-c2cc(C)c(Nc3ccnc(Nc4ccc(C#N)cc4)n3)c(C)c2)cc1 ... 0.027
Cc1cc(-c2ccccc2F)cc(C)c1Nc1ccnc(Nc2ccc(C#N)cc2)n1 ... 0.009
Cc1cc(-c2ccc(Cl)cc2)cc(C)c1Nc1ccnc(Nc2ccc(C#N)cc2)n1 ... 0.026

a: COc1ccccc1-c1cc(C)c(Nc2ccnc(Nc3ccc(C#N)cc3)n2)c(C)c1
b: Cc1cc(-c2cc(Cl)cc(Cl)c2)cc(C)c1Nc1ccnc(Nc2ccc(C#N)cc2)n1
c: Cc1cc(-c2ccc(C(F)(F)F)cc2)cc(C)c1Nc1ccnc(Nc2ccc(C#N)cc2)n1
d: Cc1cc(C)cc(-c2cc(C)c(Nc3ccnc(Nc4ccc(C#N)cc4)n3)c(C)c2)c1
Query :: Order the 4 molecules from highest to lowest IC50. Answer by naming the labels in the order asked.
Result :: d, c, b, a
(d: 0.116 µM, c: 0.067 µM, b: 0.046 µM, a: 0.021 µM)

a: Cc1ccccc1-c1cc(C)c(Nc2ccnc(Nc3ccc(C#N)cc3)n2)c(C)c1
b: Cc1cc(-c2cc(F)cc(F)c2)cc(C)c1Nc1ccnc(Nc2ccc(C#N)cc2)n1
c: Cc1cccc(-c2cc(C)c(Nc3ccnc(Nc4ccc(C#N)cc4)n3)c(C)c2)c1
Query :: Arrange by IC50, high to low. Sort the labels as requested; that list is your answer.
Result :: b, c, a

* * *

molecular target: Human immunodeficiency virus type 1 reverse transcriptase (Human immunodeficiency virus 1, UniProt Q72547); assay: Inhibition of recombinant wild type HIV1 reverse transcriptase p66/p51 using poly (rA)/anoligo (dT)16 as template/primer assessed as inhibition of biotin-dUTP incorporation after 40 mins by Pico-Green staining based fluorescence assay
PROPERTY: IC50 (nM)

P: Cc1cc(-c2ccccc2)cc(C)c1Nc1ccnc(Nc2ccc(C#N)cc2)n1
Q: COc1cccc(-c2cc(C)c(Nc3ccnc(Nc4ccc(C#N)cc4)n3)c(C)c2)c1
R: Cc1cc(-c2cccc(C(F)(F)F)c2)cc(C)c1Nc1ccnc(Nc2ccc(C#N)cc2)n1
Query :: Sort low-to-high on IC50, please. Give the labels in the order specified.
Result :: P, Q, R

* * *

Examples of compounds with documented pEC50 follow.
test system: Human immunodeficiency virus 1; assay: Antiviral activity against HIV1 harboring reverse transcriptase E138K mutant infected in human MT4 cells assessed as reduction of virus-induced cytopathic effect after 4 days by MTT assay; type: functional, organism-based; conditions: Human immunodeficiency virus 1, MT4, 96 h
The meaning of pEC50 here: minus log10 of the concentration in molar units.

Example results:
Cc1cc(-c2ccccc2F)cc(C)c1Nc1ccnc(Nc2ccc(C#N)cc2)n1 ... 8.11
Cc1ccnc2c1NC(=O)c1cccnc1N2C1CC1 [NEVIRAPINE] ... 7.24
Cc1cc(-c2cccc(C#N)c2)cc(C)c1Nc1ccnc(Nc2ccc(C#N)cc2)n1 ... 8.09
Cc1cc(C#N)cc(C)c1Oc1nc(Nc2ccc(C#N)cc2)nc(N)c1Br [ETRAVIRINE] ... 8.14
Cc1cc(-c2ccc(F)cc2)cc(C)c1Nc1ccnc(Nc2ccc(C#N)cc2)n1 ... 8.09

Query :: // query pEC50 value for entry O=C1Nc2ccc(Cl)cc2[C@@](C#CC2CC2)(C(F)(F)F)O1 [EFAVIRENZ]
Result :: 8.80

Query :: And then Cc1cn([C@H]2C[C@H](N=[N+]=[N-])[C@@H](CO)O2)c(=O)[nH]c1=O [ZIDOVUDINE] , what is it?
Result :: 8.66

Query :: Another compound: Cc1cc(-c2ccc(C#N)cc2)cc(C)c1Nc1ccnc(Nc2ccc(C#N)cc2)n1
Result :: 8.70

* * *

experiment: Cytotoxicity against human MT4 cells assessed as reduction in cell viability after 4 days by MTT assay; type: cell-based
PROPERTY: CC50 at 96 h (µM)
Dear colleague, please return just the value in µM, with no unit written.

Query :: I am curious: what CC50 at 96 h value has been reported for Cc1cc(-c2cc(F)cc(F)c2)cc(C)c1Nc1ccnc(Nc2ccc(C#N)cc2)n1 ?
Result :: 3.91

Query :: Would you kindly repeat that for Cc1cc(-c2cccc(C(F)(F)F)c2)cc(C)c1Nc1ccnc(Nc2ccc(C#N)cc2)n1 ?
Result :: 4.03

Query :: Proceed to Cc1cc(C)cc(-c2cc(C)c(Nc3ccnc(Nc4ccc(C#N)cc4)n3)c(C)c2)c1
Result :: 4.14

Query :: Check Cc1cc(-c2ccc(C(F)(F)F)cc2)cc(C)c1Nc1ccnc(Nc2ccc(C#N)cc2)n1 too.
Result :: 4.16

Query :: Same question for Cc1cc(-c2cc(Cl)cc(Cl)c2)cc(C)c1Nc1ccnc(Nc2ccc(C#N)cc2)n1 please.
Result :: 4.29

Query :: Same thing, different compound: Cc1cc(-c2ccccc2C(F)(F)F)cc(C)c1Nc1ccnc(Nc2ccc(C#N)cc2)n1
Result :: 4.21

Query :: Ok, now Cc1cc(-c2ccc(F)cc2)cc(C)c1Nc1ccnc(Nc2ccc(C#N)cc2)n1
Result :: 4.17

* * *

target: Human immunodeficiency virus type 1 reverse transcriptase (Human immunodeficiency virus 1); test: Inhibition of recombinant wild type HIV1 reverse transcriptase p66/p51 using poly (rA)/anoligo (dT)16 as template/primer assessed as inhibition of biotin-dUTP incorporation after 40 mins by Pico-Green staining based fluorescence assay
PROPERTY: IC50 (nM)

Cc1cc(-c2ccccc2Cl)cc(C)c1Nc1ccnc(Nc2ccc(C#N)cc2)n1 ... 20

1: Cc1ccc(-c2cc(C)c(Nc3ccnc(Nc4ccc(C#N)cc4)n3)c(C)c2)cc1
2: Cc1cc(-c2cccc(F)c2)cc(C)c1Nc1ccnc(Nc2ccc(C#N)cc2)n1
Query :: Could you point out whether the larger IC50 belongs to 1 or to 2 ? The response must carry the label of the picked entry.
Result :: 1

* * *

Recorded CC50 at 96 h values for a group of compounds are listed next.
experiment: Cytotoxicity against human MT4 cells assessed as reduction in cell viability after 4 days by MTT assay; format: cell-based
Unit µM implied. Number only.

Answered cases to consult:
Cc1ccccc1-c1cc(C)c(Nc2ccnc(Nc3ccc(C#N)cc3)n2)c(C)c1 ... 3.82
Cc1cc(-c2ccccc2)cc(C)c1Nc1ccnc(Nc2ccc(C#N)cc2)n1 ... 4.17
Cc1cc(-c2ccccc2Cl)cc(C)c1Nc1ccnc(Nc2ccc(C#N)cc2)n1 ... 3.99
Cc1cc(-c2ccccc2F)cc(C)c1Nc1ccnc(Nc2ccc(C#N)cc2)n1 ... 2.12
Cc1ccc(-c2cc(C)c(Nc3ccnc(Nc4ccc(C#N)cc4)n3)c(C)c2)cc1 ... 5.57

Query :: For Cc1cc(-c2cccc(F)c2)cc(C)c1Nc1ccnc(Nc2ccc(C#N)cc2)n1 , what is its reported CC50 at 96 h?
Result :: 4.12

Query :: Next compound: Cc1cccc(-c2cc(C)c(Nc3ccnc(Nc4ccc(C#N)cc4)n3)c(C)c2)c1
Result :: 3.67

Query :: What about this compound? Cc1cc(-c2c(C)cccc2C)cc(C)c1Nc1ccnc(Nc2ccc(C#N)cc2)n1
Result :: 2.59

Query :: Do the same for Cc1cc(-c2ccc(Cl)cc2)cc(C)c1Nc1ccnc(Nc2ccc(C#N)cc2)n1 please
Result :: 4.19

Query :: Moving on to the next compound: COc1cccc(-c2cc(C)c(Nc3ccnc(Nc4ccc(C#N)cc4)n3)c(C)c2)c1
Result :: 2.99

Query :: Repeat with COc1ccc(-c2cc(C)c(Nc3ccnc(Nc4ccc(C#N)cc4)n3)c(C)c2)cc1
Result :: 2.89

Query :: Try this compound next: Cc1cc(-c2cccc(C#N)c2)cc(C)c1Nc1ccnc(Nc2ccc(C#N)cc2)n1
Result :: 0.92

Query :: Ok, now COc1ccccc1-c1cc(C)c(Nc2ccnc(Nc3ccc(C#N)cc3)n2)c(C)c1
Result :: 0.94

Query :: Next compound: Cc1cc(-c2cccc(Cl)c2)cc(C)c1Nc1ccnc(Nc2ccc(C#N)cc2)n1
Result :: 2.16

* * *

assay: Cytotoxicity against human MT4 cells assessed as reduction in cell viability after 4 days by MTT assay; assay type: cell-based
Recorded CC50 at 96 h, one value per entry.

Solved cases (3 shown):
Cc1cc(C#N)cc(C)c1Oc1nc(Nc2ccc(C#N)cc2)nc(N)c1Br ... > 2000 nM
O=C1Nc2ccc(Cl)cc2[C@@](C#CC2CC2)(C(F)(F)F)O1 ... > 2000 nM
Cc1ccnc2c1NC(=O)c1cccnc1N2C1CC1 ... > 4000 nM

Consider the record given below.
Query :: Given the entry Cc1cn([C@H]2C[C@H](N=[N+]=[N-])[C@@H](CO)O2)c(=O)[nH]c1=O , report its measured CC50 at 96 h.
Result :: > 2000 nM

The measured values listed here are drawn from ChEMBL document CHEMBL4145492.
